Assay: clinical
Conditions: human, in vivo, iv, CL
Numbered stars: 1 amine (or outer) side, 2 acyl side, 3 side chain; on linkers, the order of the positions; unused ones are H or OH. Bridge positions count the residues as written; N and C are the ends. Square brackets hold non-standard residues; d marks the D form. Peptide text beside a SMILES is read from it. * marks the point of attachment. pTerphenylCO(4''-OnC5H11) = CCCCCOc1ccc(-c2ccc(-c3ccc(C(=O)*)cc3)cc2)cc1; Orn(4R-OH,5R-OH) = O=C([C@H](C[C@@H](O)[C@@H](O)N[*:3])N[*:1])[*:2]; hTyr(3S-OH,4S-OH) = N[C@H](C(=O)O)[C@H](O)[C@@H](O)c1ccc(O)cc1; Pro(3S-OH,4S-Me) = C[C@H]1CN[C@H](C(=O)O)[C@H]1O; Hyp = O=C(O)[C@@H]1C[C@@H](O)CN1
observation type: clearance (mL/min/kg)
Output spec: scalar in mL/min/kg, unitless text.

compound	clearance [mL/min/kg]
NC1CCN(c2c(F)cc3c(=O)c(C(=O)O)cn(C4CC4)c3c2Cl)C1 (stereo not drawn) [CLINAFLOXACIN]	4.7
CC(=O)O[C@H]1C(=O)[C@@]2(C)[C@H]([C@H](OC(=O)c3ccccc3)[C@]3(O)C[C@H](OC(=O)[C@H](O)[C@@H](NC(=O)c4ccccc4)c4ccccc4)C(C)=C1C3(C)C)[C@]1(OC(C)=O)CO[C@@H]1C[C@@H]2O [PACLITAXEL]	6.4

q: # get_value(readout='clearance', item= CCCCCOc1ccc(-c2ccc(-c3ccc(C(=O)N[C@H]4C[C@@H](O)[C@@H](O)NC(=O)[C@@H]5[C@@H](O)[C@@H](C)CN5C(=O)[C@H]([C@@H](C)O)NC(=O)[C@H]([C@H](O)[C@@H](O)c5ccc(O)cc5)NC(=O)[C@@H]5C[C@@H](O)CN5C(=O)[C@H]([C@@H](C)O)NC4=O)cc3)cc2)cc1 [ANIDULAFUNGIN] ({pTerphenylCO(4''-OnC5H11)}-[Orn(4R-OH,5R-OH)]T[Hyp][hTyr(3S-OH,4S-OH)]T[Pro(3S-OH,4S-Me)]; lactam 1-C) )
a: 0.21

q: Next compound: CS(=O)(=O)OCCCCOS(C)(=O)=O [BUSULFAN]
a: 2.4

q: Next compound: `CO/N=C(\C(=O)N[C@@H]1C(=O)N2C(C(=O)O)=C(C)CS[C@H]12)c1csc(N)n1`
a: 1.9

q: Next compound: CCCCCNC(=N)N/N=C/c1c[nH]c2ccc(OC)cc12 [TEGASEROD]
a: 18

q: Next compound: Cc1ccc(O)c([C@H](CCN(C(C)C)C(C)C)c2ccccc2)c1 [TOLTERODINE]
a: 8.4

q: Next compound: CN(CCOc1ccc(CC2SC(=O)NC2=O)cc1)c1ccccn1 (stereo not drawn) [ROSIGLITAZONE]
a: 0.65

q: Next compound: Oc1ccc2c(c1)[C@@]13CCCC[C@@]1(O)[C@@H](C2)N(CC1CCC1)CC3 [BUTORPHANOL]
a: 41

q: Next compound: CN(C)CCC=C1c2ccccc2CCc2ccccc21 [AMITRIPTYLINE]
a: 6.1

q: Next compound: CCCCCCCN(CC)CCCC(O)c1ccc(NS(C)(=O)=O)cc1 (stereo not drawn) [IBUTILIDE]
a: 26

q: Next compound: Cn1nnnc1SCC1=C(C(=O)O)N2C(=O)[C@@H](NC(=O)[C@H](O)c3ccccc3)[C@H]2SC1 [CEFAMANDOLE]
a: 3.6

q: Next compound: CCC(=O)OCC(=O)[C@@]1(OC(=O)CC)[C@@H](C)C[C@H]2[C@@H]3CCC4=CC(=O)C=C[C@]4(C)[C@@]3(Cl)[C@@H](O)C[C@@]21C [BECLOMETHASONE DIPROPIONATE]
a: 36
